Data origin, for the record: ChEMBL document CHEMBL5537149

# assay text: Aqueous solubility of compound at pH 7.4 by HPLC analysis
# Assay type: physicochemical
# label = yes if solubility >= 100 µM else no

## Task Please indicate if the recorded solubility for `CCNc1nc(C)cc(N2CCN(C(=O)c3ccc([N+](=O)[O-])cc3Cl)CC2)n1` meets or exceeds 100 µM.
## Result yes

## Task Please indicate if the recorded solubility for `CCNc1cc(C)nc(N2CCN(C(=O)c3cccc(Br)c3)CC2)n1` meets or exceeds 100 µM.
## Result yes

## Task Please indicate if the recorded solubility for `Cc1nc(Cl)c(N)c(N2CCN(C(=O)c3cc(Cl)cc(Cl)c3)CC2)n1` meets or exceeds 100 µM.
## Result no

## Task Please indicate if the recorded solubility for `CCCS(=O)(=O)N1CCN(c2nc(C)cc(NCC)n2)CC1` meets or exceeds 100 µM.
## Result yes

## Task Please indicate if the recorded solubility for `CCNc1nc(C)cc(N2CCN(Cc3ccc(F)cc3)CC2)n1` meets or exceeds 100 µM.
## Result yes

## Task Please indicate if the recorded solubility for `CCNc1cc(C)nc(N2CCC(NC(=O)c3cc(Cl)cc(Cl)c3)CC2)n1` meets or exceeds 100 µM.
## Result no

## Task Please indicate if the recorded solubility for `CCNc1nc(N2CCN(C(=O)c3ccc(Br)cc3)CC2)cc(C(F)(F)F)n1` meets or exceeds 100 µM.
## Result no

## Task Please indicate if the recorded solubility for `CCNc1ccnc(N2CCN(C(=O)c3ccc(F)cc3)CC2)n1` meets or exceeds 100 µM.
## Result yes

## Task Please indicate if the recorded solubility for `Cc1cc(N(C)C)nc(N2CCN(C(=O)c3ccc(Br)cc3)CC2)n1` meets or exceeds 100 µM.
## Result yes

## Task Please indicate if the recorded solubility for `CCNc1nc(C)cc(NC2CN(C(=O)c3cc(Cl)cc(Cl)c3)C2)n1` meets or exceeds 100 µM.
## Result yes

## Task Please indicate if the recorded solubility for `Nc1nc(N2CCN(C(=O)c3ccc(Cl)c(Cl)c3)CC2)c2nc[nH]c2n1` meets or exceeds 100 µM.
## Result yes

## Task Please indicate if the recorded solubility for `CCNc1cc(C)nc(N2CCN(C(=O)c3cccc([N+](=O)[O-])c3)CC2)n1` meets or exceeds 100 µM.
## Result yes

## Task Please indicate if the recorded solubility for CCNc1cc(C)nc(N2CC3CN(C(=O)c4cc(Cl)cc(Cl)c4)CC3C2)n1 (configuration not stated) meets or exceeds 100 µM.
## Result yes

## Task Please indicate if the recorded solubility for `O=C(c1ccc(Cl)c(Cl)c1)N1CCN(c2nc(C(F)(F)F)nc3[nH]cnc23)CC1` meets or exceeds 100 µM.
## Result no

## Task Please indicate if the recorded solubility for `Nc1nc(N2CCN(C(=O)c3ccc(Cl)cc3)CC2)c2nc[nH]c2n1` meets or exceeds 100 µM.
## Result yes

## Task Please indicate if the recorded solubility for `CCNc1nc(C)cc(N2CCN(C(=O)c3cccc(I)c3)CC2)n1` meets or exceeds 100 µM.
## Result yes

## Task Please indicate if the recorded solubility for `CCNc1cc(C)nc(N2CCN(C(=O)c3ccc(Cl)cc3)CC2)n1` meets or exceeds 100 µM.
## Result yes

## Task Please indicate if the recorded solubility for `CCNc1nc(C)cc(N2CCN(C(=O)c3ccc(C(C)(C)C)cc3)CC2)n1` meets or exceeds 100 µM.
## Result yes

## Task Please indicate if the recorded solubility for `CCNc1nc(C)cc(N2CCN(C(=O)c3ccc(Cl)c(Cl)c3)CC2)n1` meets or exceeds 100 µM.
## Result yes

## Task Please indicate if the recorded solubility for `O=C(c1ccc(Cl)c(Cl)c1)N1CCN(c2ncnc3[nH]cnc23)CC1` meets or exceeds 100 µM.
## Result yes

## Task Please indicate if the recorded solubility for `CCNc1nc(C)cc(N2CCN(C(=O)c3ccc(C)c(C)c3)CC2)n1` meets or exceeds 100 µM.
## Result yes

## Task Please indicate if the recorded solubility for `CCNc1ccnc(N2CCN(S(=O)(=O)c3ccc(Cl)cc3)CC2)n1` meets or exceeds 100 µM.
## Result no

## Task Please indicate if the recorded solubility for `O=C(c1ccc(Cl)cc1)N1CCN(c2nc(C(F)(F)F)nc3[nH]cnc23)CC1` meets or exceeds 100 µM.
## Result no

## Task Please indicate if the recorded solubility for CCNc1nc(C)cc(N2CC3CN(C(=O)c4cc(Cl)cc(Cl)c4)CC3C2)n1 (configuration not stated) meets or exceeds 100 µM.
## Result yes

## Task Please indicate if the recorded solubility for `CCNc1cc(C(F)(F)F)nc(N2CCN(C(=O)c3cc(Cl)cc(Cl)c3)CC2)n1` meets or exceeds 100 µM.
## Result no

## Task Please indicate if the recorded solubility for `CCNc1cc(C)nc(N2CCN(S(=O)(=O)c3ccc4ccccc4c3)CC2)n1` meets or exceeds 100 µM.
## Result no

## Task Please indicate if the recorded solubility for `O=C(c1cc(Cl)cc(Cl)c1)N1CCN(c2nc(C(F)(F)F)nc3[nH]cnc23)CC1` meets or exceeds 100 µM.
## Result no

## Task Please indicate if the recorded solubility for `CCNc1cc(C(F)(F)F)nc(N2CCN(C(=O)c3ccc(Br)cc3)CC2)n1` meets or exceeds 100 µM.
## Result no

## Task Please indicate if the recorded solubility for `O=S(=O)(c1ccc(F)cc1)N1CCN(c2ncccn2)CC1` meets or exceeds 100 µM.
## Result no

## Task Please indicate if the recorded solubility for `CCNc1nc(C)cc(N2CCN(C(=O)c3ccc(Br)cc3)CC2)n1` meets or exceeds 100 µM.
## Result yes

## Task Please indicate if the recorded solubility for `Cc1cc(N2CCN(C(=O)c3ccc(Br)cc3)CC2)nc(N(C)C)n1` meets or exceeds 100 µM.
## Result yes

## Task Please indicate if the recorded solubility for `CCNc1nc(C)cc(N2CCN(C(=O)c3cccc(Cl)c3)CC2)n1` meets or exceeds 100 µM.
## Result yes

## Task Please indicate if the recorded solubility for `CCCC(=O)N1CCN(c2nc(C)cc(NCC)n2)CC1` meets or exceeds 100 µM.
## Result yes

## Task Please indicate if the recorded solubility for `Cc1cc(N2CCN(S(=O)(=O)c3ccc(Cl)cc3)CC2)nc(NC(C)C)n1` meets or exceeds 100 µM.
## Result no

## Task Please indicate if the recorded solubility for `CCNc1nc(C)cc(N2CCN(C(=O)c3ccc(Cl)cc3Cl)CC2)n1` meets or exceeds 100 µM.
## Result yes

## Task Please indicate if the recorded solubility for `CCNc1cc(C(F)(F)F)nc(N2CCN(C(=O)c3cccc(Br)c3)CC2)n1` meets or exceeds 100 µM.
## Result no

## Task Please indicate if the recorded solubility for `CCNc1cc(C)nc(N2CCN(S(=O)(=O)c3cccs3)CC2)n1` meets or exceeds 100 µM.
## Result no
